# Test system: BV-173
# Test Method Notes: cell viability (% survival relative to DMSO control, bortezomib = 0%); higher = less cytotoxic
# Experimental Context: 100 nM; 72 h
Observable: cell viability (%)
I only need the number, in %, no unit after it.

Sample answers from the record:
CN1CCN(CCCN2c3ccccc3Sc3ccc(C(F)(F)F)cc32)CC1: 103
Cc1[nH]nc(C(F)(F)F)c1Cc1sc2c(c1C(=O)N1C[C@](C)(O)CO1)c(=O)n(C)c(=O)n2C(C)C: 4.97
CC/C=C\C[C@H]1C(=O)CC[C@@H]1CC(=O)OC [Methyl jasmonate]: 103
CN(CCCOc1ccc(Cc2ccccc2)cc1)CCC(=O)O: 100

For CN(CCOc1ccc(Cc2sc(O)nc2O)cc1)c1ccccn1 , what is its reported cell viability?
81

What about Cc1c(Cl)cccc1S(=O)(=O)Nc1nc(CC(=O)N2CCN(C)CC2)cs1 ?
94.8

What about CCc1oc2ccccc2c1C(=O)c1cc(Br)c(O)c(Br)c1 ?
117

What about N#C/C(=C\c1ccc(O)cc1)C(=O)O [alpha-cyano-4-hydroxycinnamic acid] ?
84.2

What about CCCCCCCC/C=C\CCCCCCCC(=O)Nc1ccccc1 [Octadec-9-Enoic Acid Phenylamide] ?
99.7

----------
Examples of compounds with documented cell viability follow.
# Tested on: ML-2
# Test Method Notes: cell viability (% survival relative to DMSO control, bortezomib = 0%); higher = less cytotoxic
# Experimental Context: 10 nM; 72 h

CC(C)(C)c1ccc(S(=O)(=O)NCc2ccc(C(=O)Nc3cccnc3)cc2)cc1 [STF-31]: 101%
CCn1c(=Cc2cccc[n+]2CC)sc(=C2Sc3ccccc3N2C)c1=O [MKT 077]: 98%
Cc1nc(-c2ccccc2)sc1C(=O)Nc1ccc(S(N)(=O)=O)cc1: 104%
Cc1ccc(-c2cc(C(F)(F)F)nn2-c2ccc(S(N)(=O)=O)cc2)cc1 [Celecoxib]: 99.2%

Now examine the next entry.
Please tell me: cell viability of CN(CCOc1ccc(Cc2sc(O)nc2O)cc1)c1ccccn1 [Rosiglitazone] , system ML-2?
108%

----------
# System: THP-1
# Experimental Context: 72 h
Observable: IC50 (cell viability)

Sample answers from the record:
Cc1nc(-c2ccccc2)sc1C(=O)Nc1ccc(S(N)(=O)=O)cc1: > 10 µM
O=C1C(SCCO)=C(SCCO)C(=O)c2ccccc21: 0.424 µM
CN(CCOc1ccc(Cc2sc(O)nc2O)cc1)c1ccccn1: > 10 µM
CCOC(=O)c1sc(NC(=O)c2ccco2)c(SC#N)c1C: > 10 µM
C[C@H]1c2cccc(O)c2C(=O)C2C(=O)[C@]3(O)C(=O)C(C(N)=O)C(=O)[C@@H](N(C)C)[C@@H]3[C@@H](O)[C@@H]21 (stereo partly specified): > 10 µM

Now examine the next entry.
For CC(=O)Nc1nc(C)c(-c2ccc(Cl)c(S(=O)(=O)NCCO)c2)s1 , what is its reported IC50 (cell viability)?
1.51 µM

----------
# System: myeloid leukemia patient primary cells Pat.2
# Test Method Notes: cell viability (% survival relative to DMSO control); higher = less cytotoxic
# Experimental Context: 1000 nM; 72 h
Examples of molecules with documented cell viability follow.
I only need the number, in %, no unit after it.

For O=C(O)CC[N+](=O)[O-] , what is its reported cell viability?
92.7

What about CN(CCOc1ccc(Cc2sc(O)nc2O)cc1)c1ccccn1 ?
98.3

What about CC(C)(C)c1ccc(S(=O)(=O)NCc2ccc(C(=O)Nc3cccnc3)cc2)cc1 ?
13.2

What about O=c1cc(N2CCOCC2)oc2c(-c3ccccc3)cccc12 ?
91.1

What about CCN(CC)C(=S)SSC(=S)N(CC)CC ?
0.978

What about CC(=O)Nc1nc(C)c(-c2ccc(Cl)c(S(=O)(=O)NCCO)c2)s1 ?
65.5

What about Cc1[nH]nc(C(F)(F)F)c1Cc1sc2c(c1C(=O)N1C[C@](C)(O)CO1)c(=O)n(C)c(=O)n2C(C)C ?
96.3

----------
Examples of molecules with documented cell viability follow.
# Test system: myeloid leukemia patient primary cells Pat.5
# Test Method Notes: cell viability (% survival relative to DMSO control); higher = less cytotoxic
# Experimental Context: 1 nM; 72 h
I only need the number, in %, no unit after it.

For C[C@]12C=CC(=O)C=C1CC[C@@H]1[C@@H]2[C@@H](O)C[C@@]2(C)[C@H]1CC[C@]2(O)C(=O)CO [Prednisolone] , what is its reported cell viability?
40.8

What about CC(C)(C)c1ccc(S(=O)(=O)NCc2ccc(C(=O)Nc3cccnc3)cc2)cc1 [STF-31] ?
78.8

What about CN1CCN(CCCN2c3ccccc3Sc3ccc(C(F)(F)F)cc32)CC1 [Trifluoperazine] ?
99.9

What about Cn1cc(-c2ccncc2)c(-c2ccc(OCc3ccc4ccccc4n3)cc2)n1 ?
26.3

What about O=c1cc(N2CCOCC2)oc2c(-c3ccccc3)cccc12 ?
47.8

----------
# Tested on: myeloid leukemia patient primary cells Pat.13
# Test Method Notes: cell viability (% survival relative to DMSO control); higher = less cytotoxic
# Experimental Context: 10000 nM; 72 h
Observable: cell viability (%)
I only need the number, in %, no unit after it.

Sample answers from the record:
CO[C@H]1C[C@@H]2CC[C@@H](C)[C@@](O)(O2)C(=O)C(=O)N2CCCC[C@H]2C(=O)O[C@H]([C@H](C)C[C@@H]2CC[C@@H](OC(=O)C(C)(CO)CO)[C@H](OC)C2)CC(=O)[C@H](C)/C=C(\C)[C@@H](O)[C@@H](OC)C(=O)[C@H](C)C[C@H](C)/C=C/C=C/C=C/1C: 55.3
O=c1cc(N2CCOCC2)oc2c(-c3ccccc3)cccc12: 45.6
CC(C)(C)c1ccc(S(=O)(=O)NCc2ccc(C(=O)Nc3cccnc3)cc2)cc1: 9.54
O=C(/C=C/c1ccc(O)c(O)c1)OCCc1ccccc1: 42

Now examine the next entry.
Please tell me: cell viability of CO[C@H]1C[C@@H]2CC[C@@H](C)[C@@](O)(O2)C(=O)C(=O)N2CCCC[C@H]2C(=O)O[C@H]([C@H](C)C[C@@H]2CC[C@@H](OCCO)[C@H](OC)C2)CC(=O)[C@H](C)/C=C(\C)[C@@H](O)[C@@H](OC)C(=O)[C@H](C)C[C@H](C)/C=C/C=C/C=C/1C , system myeloid leukemia patient primary cells Pat.13?
43.1

----------
# System: HL-60
# Test Method Notes: cell viability (% survival relative to DMSO control, bortezomib = 0%); higher = less cytotoxic
# Experimental Context: 10 nM; 72 h
Examples of molecules with documented cell viability follow.
Form entry: enter the amount, then its unit.

Sample answers from the record:
CCCCCOC(=O)Nc1nc(=O)n([C@@H]2O[C@H](C)[C@@H](O)[C@H]2O)cc1F: 85.2%
CC(C)(C)c1ccc(S(=O)(=O)NCc2ccc(C(=O)Nc3cccnc3)cc2)cc1: 169%
CCn1c(=Cc2cccc[n+]2CC)sc(=C2Sc3ccccc3N2C)c1=O: 84.5%
CCOC(=O)c1sc(NC(=O)c2ccco2)c(SC#N)c1C: 102%
CO[C@H]1C[C@@H]2CC[C@@H](C)[C@@](O)(O2)C(=O)C(=O)N2CCCC[C@H]2C(=O)O[C@H]([C@H](C)C[C@@H]2CC[C@@H](OC(=O)C(C)(CO)CO)[C@H](OC)C2)CC(=O)[C@H](C)/C=C(\C)[C@@H](O)[C@@H](OC)C(=O)[C@H](C)C[C@H](C)/C=C/C=C/C=C/1C: 96.8%

Now examine the next entry.
For CC(C)CC(=O)N[C@H](C(=O)N[C@H](C(=O)N[C@@H](CC(C)C)[C@@H](O)CC(=O)N[C@@H](C)C(=O)N[C@@H](CC(C)C)[C@@H](O)CC(=O)O)C(C)C)C(C)C , what is its reported cell viability?
73.7%

----------
# Tested on: ML-2
# Test Method Notes: cell viability (% survival relative to DMSO control, bortezomib = 0%); higher = less cytotoxic
# Experimental Context: 100 nM; 72 h
Observable: cell viability (%)
I only need the number, in %, no unit after it.

Sample answers from the record:
N[C@@H](CC(=O)N1CCn2c(nnc2C(F)(F)F)C1)Cc1cc(F)c(F)cc1F: 99.3
CO[C@H]1C[C@@H]2CC[C@@H](C)[C@@](O)(O2)C(=O)C(=O)N2CCCC[C@H]2C(=O)O[C@H]([C@H](C)C[C@@H]2CC[C@@H](OC(=O)C(C)(CO)CO)[C@H](OC)C2)CC(=O)[C@H](C)/C=C(\C)[C@@H](O)[C@@H](OC)C(=O)[C@H](C)C[C@H](C)/C=C/C=C/C=C/1C: 70.4
CN1CCN(CCCN2c3ccccc3Sc3ccc(C(F)(F)F)cc32)CC1: 103
OC[C@H]1O[C@@H](n2cnc3c2N=CNC[C@H]3O)C[C@@H]1O: 99.1
Cc1c(Cl)cccc1S(=O)(=O)Nc1nc(CC(=O)N2CCN(C)CC2)cs1: 92.6

Now examine the next entry.
For O=C([O-])CC(O)(C(=O)[O-])C(O)C(=O)[O-].[K+].[K+].[K+] (stereo unspecified) [Hydroxycitrate] , what is its reported cell viability?
78.1
